Data origin: patent US6593335B1

# target: potassium channels (Sus scrofa, UniProt F1SR11)
# protocol.details: Functional potassium channel opening activity in isolated Landrace pig bladder strips (field-stimulated twitch)
# measurement.context: negative logarithm of ED50
Decision: Landrace Pig Bladder pD2 >= 5 yields yes, all other cases yield no.

INSERT INTO results (molecule, assigned_label) VALUES
  ('O=S1(=O)CCC2=C1C(c1ccc(Br)c(Br)c1)C1=C(CCS1(=O)=O)N2', 'yes'),
  ('O=C1CCCC2=C1C(c1ccc(F)c(Br)c1)C1=C(CCCS1(=O)=O)N2 (single isomer, unassigned; (+)) [Example 93]', 'yes'),
  ('O=C1CCC2=C1C(c1ccc(F)c(Br)c1)C1=C(CCCS1(=O)=O)N2 (single isomer, unassigned; (-)) [Example 92]', 'yes'),
  ('Cc1ccc(C2C3=C(CCCC3=O)NC3=C2S(=O)(=O)CC3)cc1C#N (single isomer, unassigned)', 'yes'),
  ('O=S1(=O)CCC2=C1C(c1ccc(Cl)c(Cl)c1)C1=C(CCS1(=O)=O)N2', 'yes'),
  ('O=C1CCC2=C1C(c1ccc(F)c(Br)c1)C1=C(CCS1(=O)=O)N2 (stereo not drawn) [Example 56]', 'yes'),
  ('O=C1CCC2=C1C(c1ccc(Cl)c([N+](=O)[O-])c1)C1=C(CCS1(=O)=O)N2 (single isomer, unassigned) [Example 161]', 'yes'),
  ('O=C1CCCC2=C1C(c1ccc3nonc3c1)C1=C(CCS1(=O)=O)N2 (single isomer, unassigned; (+)) [Example 97]', 'yes'),
  ('O=C1CCC2=C1C(c1ccc(Cl)c(Cl)c1)C1=C(CCS1(=O)=O)N2 (stereo not drawn) [Example 60]', 'yes'),
  ('O=C1CCCC2=C1C(c1ccc(Cl)c(Cl)c1)C1=C(CCS1(=O)=O)N2 (single isomer, unassigned; (+)) [Example 95]', 'yes'),
  ('O=C1CCCC2=C1C(c1cc(Br)c(F)cc1O)C1=C(CCS1(=O)=O)N2 (stereo not drawn)', 'yes'),
  ('O=C1CCCC2=C1C(c1ccc(Cl)c([N+](=O)[O-])c1)C1=C(CCCS1(=O)=O)N2 (stereo not drawn)', 'yes'),
  ('O=C1CCCC2=C1C(c1ccc(F)c(I)c1)C1=C(CCS1(=O)=O)N2 (single isomer, unassigned)', 'yes'),
  ('O=C1CCCC2=C1C(c1ccc(F)c(C(F)(F)F)c1)C1=C(CCS1(=O)=O)N2 (single isomer, unassigned; (-))', 'yes'),
  ('CC1=C(S(C)(=O)=O)C(c2cc(F)c(F)c(F)c2)C2=C(CCCC2=O)N1 (stereo not drawn)', 'no'),
  ('O=C1CCCC2=C1C(c1cc(Br)ccc1O)C1=C(CCS1(=O)=O)N2 (stereo not drawn)', 'no'),
  ('N#Cc1cccc(C2C3=C(CCCC3=O)NC3=C2S(=O)(=O)CCC3)c1 (stereo not drawn)', 'no'),
  ('O=C1CCCC2=C1C(c1ccc(F)c(-c3ccco3)c1)C1=C(CCS1(=O)=O)N2 (single isomer, unassigned)', 'yes'),
  ('O=C1CCCC2=C1C(c1ccc(Br)s1)C1=C(CCS1(=O)=O)N2 (single isomer, unassigned)', 'yes'),
  ('O=C1CCC2=C1C(c1ccc(F)c(Br)c1)C1=C(CCCS1(=O)=O)N2 (single isomer, unassigned; (+)) [Example 91]', 'no'),
  ('O=C1CCCC2=C1C(c1ccc(F)c(Cl)c1)C1=C(CCCS1(=O)=O)N2 (stereo not drawn)', 'yes'),
  ('O=S1(=O)CCC2=C1C(c1ccc3nonc3c1)C1=C(CCS1(=O)=O)N2', 'no'),
  ('O=C1CCC2=C1C(c1ccc(Cl)c(Cl)c1)C1=C(CCS1(=O)=O)N2 (single isomer, unassigned) [Example 146]', 'yes');
